meta.source: PubChem BioAssay

TEST_PROTOCOL: inhibitors of TNFa-induced NFkB p65 translocation, primary screen, imaging, HUVEC, MLSMR starter and 10KST1 sets (AID 438);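 further: compound added about 3h40 before a 20 min TNFalpha stimulation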
EXPERIMENTAL_SETUP: HUVEC TNFa-induced p65 nuclear translocation; measured here: nuclei count (cytotoxicity indicator), at 2.08 µM
Please use True whenever cell count is not below 500, and False whenever it is.

MOLECULE	CATEGORY_LABEL
CCOc1cccc(-c2nnc3sc(COc4ccc(OC)cc4)nn23)c1	True
CCCCn1nnc(NC(=O)c2cc3ccccc3o2)n1	True
COCc1n[nH]c(=S)n1-c1cccc2ccccc12	True
CCOc1ccc2nc(SCc3ccc(C(=O)OC)o3)[nH]c2c1	False

Req: Given CCC(=O)Nc1c(C#N)c2nc3ccccc3nc2n1C1CCCCC1 , state whether its cell count is at least 500.
Resp: True

Req: Given CCOC(=O)c1ccccc1NC(=O)c1cc2sccc2n1C , state whether its cell count is at least 500.
Resp: True

Req: Given CCOC(=O)C1CCCN(c2nc3ccccc3nc2C(C#N)C(=O)OC(C)COC)C1 (stereo not drawn) , state whether its cell count is at least 500.
Resp: True

----------
molecules and their reported cell count
TEST_PROTOCOL: inhibitors of TNFa-induced NFkB p65 translocation, primary screen, imaging, HUVEC, MLSMR starter and 10KST1 sets (AID 438);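 further: compound added about 3h40 before a 20 min TNFalpha stimulation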
EXPERIMENTAL_SETUP: HUVEC TNFa-induced p65 nuclear translocation; measured here: nuclei count (cytotoxicity indicator), at 2.08 µM
Field format: numeric only.

Some entries whose results are on file:
MOLECULE	MEASURED_VALUE
O=C(CN1CCN(c2ncccn2)CC1)Nc1ccccc1-n1cccc1	327
CN1CCN(Cc2c(O)c(Cl)cc3c(-c4ccccc4)cc(=O)oc23)CC1	601
O=c1[nH]c2sc3c(c2c2nncn12)CCCC3	420
CCOC(=O)c1sc(NC(=O)c2noc3c2CCCC3)c(C(=O)OCC)c1C	688

Req: Please look up its cell count: O=c1c(-c2ccc(Cl)cc2)[n+]([O-])c2ccccc2n1O
Resp: 517

Req: Please look up its cell count: COc1cccc(NC(=O)N2CCCC2C(=O)NC(C)C)c1 (stereo unspecified)
Resp: 436

----------
ASSAYED_TARGET: Voltage-gated potassium channel subunit beta-2 (Rattus norvegicus) (UniProt P62483)
Sequence (P62483 whole entry, looked up): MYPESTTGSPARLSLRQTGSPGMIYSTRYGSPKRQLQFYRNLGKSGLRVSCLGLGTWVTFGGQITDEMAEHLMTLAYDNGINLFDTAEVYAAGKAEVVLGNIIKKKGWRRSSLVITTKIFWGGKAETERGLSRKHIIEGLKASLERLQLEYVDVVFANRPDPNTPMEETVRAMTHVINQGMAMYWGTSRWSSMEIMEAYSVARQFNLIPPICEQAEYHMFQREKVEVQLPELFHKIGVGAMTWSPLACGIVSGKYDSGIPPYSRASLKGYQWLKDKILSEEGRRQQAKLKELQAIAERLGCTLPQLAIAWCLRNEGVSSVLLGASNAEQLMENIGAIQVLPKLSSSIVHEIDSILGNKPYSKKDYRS
TEST_PROTOCOL: KvBeta enzyme negative modulators, primary screen, biochemical, NADPH fluorescence (AID 622);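 further: slope of raw intensity against log time taken from 70 to 1610 s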
EXPERIMENTAL_SETUP: recombinant KvBeta, 4-cyanobenzaldehyde reduction, at 10 µM
Active and inactive are the calls of the source.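 The calls were made as follows: active = fluorescence slope higher than the sample average by over 3 SD (cut at about -0.22 in these data, passing the limit was not always enough); inactive = the rest.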
Outcome (select one): t = active, f = inactive

Here's what some known entries look like.
COMPOUND	ASSAYED_TARGET	CATEGORY_LABEL
CS(=O)(=O)N1CCC(C(=O)NCCC2=CCCCC2)CC1	Voltage-gated potassium channel subunit beta-2 (Rattus norvegicus) (UniProt P62483)	f
CC(C)CCn1c(=O)c2ccccc2n2c(CN(C)Cc3ccccc3)nnc12	Voltage-gated potassium channel subunit beta-2 (Rattus norvegicus) (UniProt P62483)	f

Req: Tell me the assay call for Cc1cc(C)n(S(=O)(=O)/C=C/c2ccccc2)n1 please.
Resp: f

Req: Tell me the assay call for CC1(C)Cc2nc3sc4c(N(CCO)CCO)ncnc4c3cc2CO1 please.
Resp: f

Req: Tell me the assay call for Cc1cc(CCC(=O)O)c(C)cc1CCC(=O)O please.
Resp: f

Req: Tell me the assay call for COc1ccccc1C1/C(=C(/O)c2ccc(C)cc2)C(=O)C(=O)N1CCN1CCOCC1 (stereo unspecified) please.
Resp: f

Req: Tell me the assay call for CCN(CC)S(=O)(=O)c1ccc(NC(=O)Cn2cnc3ccccc3c2=O)cc1 please.
Resp: f

Req: Tell me the assay call for CC(C)COc1ccc(C(=O)OCCN2CCOCC2)c(O)c1 please.
Resp: f

Req: Tell me the assay call for O=C(CSc1nccn1-c1cccc(Cl)c1)NC1CCCC1 please.
Resp: f

Req: Tell me the assay call for CC(C)(C)OC(=O)NCCc1nnc(SCC(=O)c2ccc(Cl)cc2)o1 please.
Resp: f

Req: Tell me the assay call for Nc1c(C(=O)NCc2ccco2)sc2nc(N3CCOCC3)c3c(c12)CCCC3 please.
Resp: t
